molecular target: rat mGlu2 SNAP-tagged receptor (rat, UniProt P31421 19-872, SNAP tag labelled with SNAP-Lumi4-Tb); assay: TR-FRET on HEK-293 cells with SNAP-tagged rat mGlu2, anti-6His-d2; active conformation
Sequence (P31421 19-872): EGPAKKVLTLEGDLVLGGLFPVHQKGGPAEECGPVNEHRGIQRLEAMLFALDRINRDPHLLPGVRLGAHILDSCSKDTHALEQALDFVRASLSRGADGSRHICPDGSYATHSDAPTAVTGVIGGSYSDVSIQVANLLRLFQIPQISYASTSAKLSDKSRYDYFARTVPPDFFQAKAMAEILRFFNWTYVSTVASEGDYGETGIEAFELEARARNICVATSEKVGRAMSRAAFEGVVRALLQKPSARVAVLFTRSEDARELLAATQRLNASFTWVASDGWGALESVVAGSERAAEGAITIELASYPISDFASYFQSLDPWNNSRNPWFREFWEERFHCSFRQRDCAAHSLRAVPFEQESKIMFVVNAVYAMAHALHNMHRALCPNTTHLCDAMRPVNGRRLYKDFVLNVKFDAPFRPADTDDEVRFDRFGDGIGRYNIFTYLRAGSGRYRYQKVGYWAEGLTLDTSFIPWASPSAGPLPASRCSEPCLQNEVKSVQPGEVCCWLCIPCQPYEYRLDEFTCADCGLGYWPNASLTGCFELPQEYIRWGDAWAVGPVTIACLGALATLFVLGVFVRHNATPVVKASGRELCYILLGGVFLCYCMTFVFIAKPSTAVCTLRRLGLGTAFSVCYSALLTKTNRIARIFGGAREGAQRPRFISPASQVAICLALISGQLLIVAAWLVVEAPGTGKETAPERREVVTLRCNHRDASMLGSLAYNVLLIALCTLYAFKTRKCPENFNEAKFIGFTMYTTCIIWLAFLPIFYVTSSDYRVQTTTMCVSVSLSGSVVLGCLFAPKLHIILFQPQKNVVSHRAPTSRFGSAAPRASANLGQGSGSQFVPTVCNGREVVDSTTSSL
MEASURE NAME: pKd (pKd)
One number for each entry, in pKd.

The reported value for IGF-1252 (IGF-1159 HcAb IGF-1168) (bispecific antibody) QVQLVQSGGGLVQAGGSLRLSCAASGRTFSSFAMAWFRQAPGKEREFVAAISWSGSTGHADSVKGRFTITRDNAKNTVFLQMNSLKPEDTAVYYCALGKGSSYYYSPSGYDYWGQGTQVTVSSEPKIPQPQPKPQPQPQPQPQPKPQPKPEPQVQLVQSGGGLVQAGGSLRLSCAASVRFFSINTMGWYRQAPGKQRELVADITSSGSTNYADSGKGRFTISRDNAKNTVYLQMNRLKPEDTAVYYCHADYKYTTHNTAWGQGTQVTVSS in terms of pKd is 8.77
